Target: p97-ND1 (Homo sapiens)
Construct: His6 (TEV protease-cleavable) (N); made in house
Experiment: BLI dose-response binding to the p97-ND1 construct
Details: Langmuir model, steady state measurements of a dilution series; read-out: KD of ADP to p97-ND1 (steady state)
Measured attribute: Kd (nM)
Numbers only here, please. The scale is nM.

Notebook: Nc1ncnc2c1ncn2[C@@H]1O[C@H](COP(=O)(O)OP(=O)(O)O)[C@@H](O)[C@H]1O [ADP, adenosine diphosphate, reference compound] , Kd read as 200

* * *

Molecular target: N-domain of p97 (Homo sapiens, UniProt P55072)
Construct: additional STD measurements with the isolated N-domain were carried out; made in house
Sequence (P55072 21-199 limits assumed): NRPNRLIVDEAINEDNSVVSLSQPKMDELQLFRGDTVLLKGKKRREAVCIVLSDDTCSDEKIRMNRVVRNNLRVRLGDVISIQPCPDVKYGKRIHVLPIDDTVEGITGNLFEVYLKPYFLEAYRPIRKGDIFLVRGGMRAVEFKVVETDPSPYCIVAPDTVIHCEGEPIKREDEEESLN
Assay: STD-NMR build-up measurements with the isolated N-domain
Format: binding
Measured attribute: binding to the N-domain by STD-NMR

NCC(O)c1ccc(Cl)cc1 (stereo not shown) | confirmed the binding
Cc1oc(CN)nc1-c1ccccc1 | confirmed the binding
NCC(O)c1ccc(Br)cc1 (stereo not shown) | confirmed the binding
Cc1ccc(-c2cc(N)n[nH]2)o1 | confirmed the binding

* * *

Below, each entry is listed with its recorded maximum STD-effect (ND1).
Target: p97-ND1 (Homo sapiens, UniProt P55072)
Construct: His6 (TEV protease-cleavable) (N); made in house
Sequence (P55072 2-481): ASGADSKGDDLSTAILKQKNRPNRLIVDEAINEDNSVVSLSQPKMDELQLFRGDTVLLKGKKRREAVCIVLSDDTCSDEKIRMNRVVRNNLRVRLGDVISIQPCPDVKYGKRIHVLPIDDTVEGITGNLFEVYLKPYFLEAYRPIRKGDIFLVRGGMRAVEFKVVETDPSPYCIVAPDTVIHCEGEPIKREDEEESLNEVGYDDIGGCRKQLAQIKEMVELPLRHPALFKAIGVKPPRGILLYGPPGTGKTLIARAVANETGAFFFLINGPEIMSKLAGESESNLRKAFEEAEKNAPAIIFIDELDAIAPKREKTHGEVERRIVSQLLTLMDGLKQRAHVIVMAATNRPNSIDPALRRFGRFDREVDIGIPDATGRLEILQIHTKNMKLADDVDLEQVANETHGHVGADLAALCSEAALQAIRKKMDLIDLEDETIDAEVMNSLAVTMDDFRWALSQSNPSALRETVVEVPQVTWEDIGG
Assay: STD-NMR with p97-ND1 in the presence of 500 µM ADP
Assay type: binding
Design: key: STD effect = Idiff/Ioff × 100 (%)
Settings: Supplementary Table 3
Reply with just the number.

Nc1nc2c(s1)CN(Cc1ccccc1)CC2 | 18.3
Nc1[nH]ncc1-c1ccc(Cl)cc1 | 57.4
Cc1ccc(-c2csc3nc(CO)cn23)cc1 | 67.4
O=C(O)Cc1cc2ccccc2[nH]1 | 72.5
Cc1oc(CN)nc1-c1ccccc1 | 47.9

Record NCC(O)c1ccc(Cl)cc1 (centres unmarked) ; system p97-ND1 (Homo sapiens, UniProt P55072); maximum STD-effect (ND1) = 37.3

Record Cc1ccc(-c2cc(N)n[nH]2)o1 ; system p97-ND1 (Homo sapiens, UniProt P55072); maximum STD-effect (ND1) = 41.0

Record NCC(O)c1ccc(Br)cc1 (centres unmarked) ; system p97-ND1 (Homo sapiens, UniProt P55072); maximum STD-effect (ND1) = 37.7

* * *

Biological target: p97-N (Homo sapiens)
Construct: Constructs of p97-N (aa 21-199, N-terminal 3 C protease-cleavable His6-tag); His6 (3C protease-cleavable) (N)
Sequence (P55072 21-199): as the sequence (P55072 21-199 limits assumed) above
Assay: BLI dose-response binding to the isolated N-domain of p97
Settings: BLI steady state, 1:1 Langmuir model; errors from the fitting model
Measured attribute: pKd
// field semantics: pKd = negative decimal log of concentration (mol/L)

Illustrative cases are given below, each with its answer.
Nc1[nH]ncc1-c1ccc(Cl)cc1 | 3.20
Nc1nc2c(s1)CN(Cc1ccccc1)CC2 | 3.83
NCC(O)c1ccc(Br)cc1 (stereo not shown) | 4.25

Notebook: Cc1ccc(-c2cc(N)n[nH]2)o1 , pKd read as 3.61

Notebook: Cc1oc(CN)nc1-c1ccccc1 , pKd read as 3.45

Notebook: O=C(O)Cc1cc2ccccc2[nH]1 , pKd read as 3.80

Notebook: Cc1ccc(-c2csc3nc(CO)cn23)cc1 , pKd read as 3.39

* * *

Target: p97-ND1 (Homo sapiens, UniProt P55072)
Construct: His6 (TEV protease-cleavable) (N); made in house
Assay: STD-NMR with p97-ND1 in the presence of 500 µM ADP
Format: binding
Details: aromatic resonances; 428 µM fragment, 30 µM protein, 500 µM ADP
Measured attribute: STD (maximum STD signal measured with p97-ND1)
Note: state the figure and append the unit.

Nc1[nH]ncc1-c1ccc(Cl)cc1 | 57.4%
NCC(O)c1ccc(Br)cc1 (centres unmarked) | 37.7%
Cc1ccc(-c2csc3nc(CO)cn23)cc1 | 67.4%
Cc1oc(CN)nc1-c1ccccc1 | 47.9%
Nc1nc2c(s1)CN(Cc1ccccc1)CC2 | 18.3%

Notebook: O=C(O)Cc1cc2ccccc2[nH]1 , STD (maximum STD signal measured with p97-ND1) read as 72.5%

Notebook: NCC(O)c1ccc(Cl)cc1 (centres unmarked) , STD (maximum STD signal measured with p97-ND1) read as 37.3%

Notebook: Cc1ccc(-c2cc(N)n[nH]2)o1 , STD (maximum STD signal measured with p97-ND1) read as 41.0%
